- experimental_protocol: Cytotoxicity CPE assay (neutral red), MDCK
- Format: cell-based
- condition_label: dog, MDCK cells, mean ± S.E.
Residues, ends and D or L forms follow the SMILES beside them.
property_label: CC50 at 48 h

Reference set, count: 2
Qu. Identify measured CC50 at 48 h corresponding to CSCC[C@@H](C=O)NC(=O)[C@H](CC(C)C)NC(=O)[C@H](CC(C)C)NC(C)=O [Calpain inhibitor II (61), Calpain inhibitor II] (Ac-Leu-Leu-Met-aldehyde)
Ans. > 100 µM

Qu. Could you please provide reported CC50 at 48 h for CC(C)C[C@H](NC(=O)OCc1ccccc1)C(=O)N[C@@H](C[C@@H]1CCNC1=O)C(O)S(=O)(=O)[O-].[Na+] (stereo partly drawn) ? Thanks!
Ans. > 100 µM

--- query ---
Qu. Let me know recorded CC50 at 48 h for CCC[C@H](NC(=O)[C@H](CC(C)C)NC(=O)OCc1ccccc1)C(=O)C(=O)NCc1ccccn1 , thanks.
Ans. 60.4 µM
